Measured On: human RORγt-LBD (Homo sapiens)
Construct: human RORγt-LBD (264-518, produced at Novartis)
Sequence (P51449 264-518): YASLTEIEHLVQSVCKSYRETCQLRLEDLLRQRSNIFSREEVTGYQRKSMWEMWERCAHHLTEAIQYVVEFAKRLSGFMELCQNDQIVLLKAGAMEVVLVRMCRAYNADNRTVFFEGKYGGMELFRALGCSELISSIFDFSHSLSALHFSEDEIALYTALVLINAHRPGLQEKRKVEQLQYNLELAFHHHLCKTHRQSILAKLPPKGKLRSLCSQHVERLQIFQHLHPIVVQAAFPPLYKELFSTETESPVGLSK
Experiment: TR-FRET RIP140 co-activator peptide displacement from RORγt-LBD
Stated Conditions: 1 h incubation, read-out: IC50, disruption of RIP140 peptide interaction with RORγt-LBD
Protocol: Compound-mediated disruption of the interaction between the human RORγt-LBD (264-518, produced at Novartis) with a biotinylated RIP140 derived co-activator peptide (biotinyl-NH-Ahx-[…]-CONH2, Thermo Scientific) was quantified by TR-FRET as previously described ([34], [44]). […] After 1 h of incubation, the emissions were measured at 615 and 665 nm. Concentration-response curves were generated and IC50 values were calculated using the GraphPad Prism software package.
Readout Kind: pIC50
Convention used: pIC50 is expressed as -log10 of the molar concentration.

# query: pIC50 of entry "Cc1ccc(C(=O)Nc2cn3ccnc3c(CN3CCN(c4noc(C(C)(C)C)n4)[C@@H](C)C3)c2C)cn1"
8.24

----------
Measured On: RORγt-LBD (Homo sapiens)
Construct: luciferase reporter gene transcription is driven by the GAL4-RORγt-LBD fusion construct
Sequence (P51449 269-508 limits assumed): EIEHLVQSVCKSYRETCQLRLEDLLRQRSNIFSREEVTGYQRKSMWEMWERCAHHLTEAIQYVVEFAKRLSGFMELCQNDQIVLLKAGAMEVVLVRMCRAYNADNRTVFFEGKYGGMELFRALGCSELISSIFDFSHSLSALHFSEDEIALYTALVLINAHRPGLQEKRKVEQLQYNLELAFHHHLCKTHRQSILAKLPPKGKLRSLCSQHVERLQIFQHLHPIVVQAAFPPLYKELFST
Experiment: RORγt-LBD/GAL4 transactivation reporter gene assay in Jurkat T-cells
Stated Conditions: luciferase, 24 h with compound
Readout Kind: IC50 (nM)
Report as a plain number; the unit nM is understood.

# query: IC50 of entry "Cc1ccc(C(=O)Nc2cn3ccnc3c(CN3CCN(c4noc(C(C)(C)C)n4)[C@@H](C)C3)c2C)cn1"
95

----------
Tested on: total human CD4+ T-cells
Experiment: Th17 polarization of total CD4+ T-cells, cytokine ELISA
Type: cell-based
Stated Conditions: Homo sapiens, T-cell; total CD4+ T-cells, Th17 polarization 72 h, ELISA; read-out: IC50, IL-17A secretion
Readout Kind: pIC50
Convention used: pIC50 is expressed as -log10 of the molar concentration.

# query: pIC50 of entry "Cc1ccc(C(=O)Nc2cn3ccnc3c(CN3CCN(c4noc(C(C)(C)C)n4)[C@@H](C)C3)c2C)cn1"
7.41

The values you see were collected from paper PMC6443933.
